The origin of these recorded values is ChEMBL document CHEMBL1143305.

- STUDY TARGET: UniProt Q9UBN7
- Sequence (Q9UBN7 whole entry): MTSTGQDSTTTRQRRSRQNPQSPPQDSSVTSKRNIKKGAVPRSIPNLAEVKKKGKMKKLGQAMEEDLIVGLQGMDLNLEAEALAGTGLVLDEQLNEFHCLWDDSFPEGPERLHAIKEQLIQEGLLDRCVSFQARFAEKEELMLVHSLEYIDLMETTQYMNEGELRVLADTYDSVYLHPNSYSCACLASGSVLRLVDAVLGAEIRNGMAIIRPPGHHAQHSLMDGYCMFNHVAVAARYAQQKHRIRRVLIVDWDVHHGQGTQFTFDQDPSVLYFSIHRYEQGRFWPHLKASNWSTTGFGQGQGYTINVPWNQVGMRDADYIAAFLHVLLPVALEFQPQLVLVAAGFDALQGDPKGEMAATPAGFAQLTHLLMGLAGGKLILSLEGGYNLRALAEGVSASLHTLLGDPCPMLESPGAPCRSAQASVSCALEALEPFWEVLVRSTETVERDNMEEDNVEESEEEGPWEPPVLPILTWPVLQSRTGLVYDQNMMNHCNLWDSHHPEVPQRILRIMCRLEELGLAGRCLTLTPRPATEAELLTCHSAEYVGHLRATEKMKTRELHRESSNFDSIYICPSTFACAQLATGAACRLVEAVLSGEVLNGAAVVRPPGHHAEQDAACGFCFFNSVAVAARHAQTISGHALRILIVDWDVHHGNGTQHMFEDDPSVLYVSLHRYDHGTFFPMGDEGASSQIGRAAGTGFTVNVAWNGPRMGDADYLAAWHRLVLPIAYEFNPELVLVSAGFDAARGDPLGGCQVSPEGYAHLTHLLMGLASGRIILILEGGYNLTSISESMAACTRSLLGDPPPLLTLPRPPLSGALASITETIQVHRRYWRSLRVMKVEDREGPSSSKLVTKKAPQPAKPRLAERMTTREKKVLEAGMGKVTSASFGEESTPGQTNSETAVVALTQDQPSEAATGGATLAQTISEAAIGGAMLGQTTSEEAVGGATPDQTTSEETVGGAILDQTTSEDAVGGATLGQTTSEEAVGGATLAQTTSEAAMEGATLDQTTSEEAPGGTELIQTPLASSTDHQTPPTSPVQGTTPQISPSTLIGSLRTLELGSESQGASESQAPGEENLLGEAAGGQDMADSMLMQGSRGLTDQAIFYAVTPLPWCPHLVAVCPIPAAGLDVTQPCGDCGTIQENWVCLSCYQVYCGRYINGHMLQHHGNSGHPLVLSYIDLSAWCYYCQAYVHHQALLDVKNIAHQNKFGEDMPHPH
MEASURED ATTRIBUTE: IC50

| SMILES NOTATION | MEASURED ATTRIBUTE | VALUE REPORTED |
| --- | --- | --- |
| Nc1ccccc1NC(=O)c1ccc(CNc2nccc(-c3ccn[nH]3)n2)cc1 | IC50 | > 20 µM |

====

- ASSAY TEXT: Tmax in Sprague-Dawley rat at 5 mg/kg, po up to 6 hrs
- Assay type: ADME, organism-based
- Set-up: dose 5 mg/kg, route oral
- ASSAY CONTEXT: in vivo
MEASURED ATTRIBUTE: Tmax

| SMILES NOTATION | VALUE REPORTED |
| --- | --- |
| Nc1ccccc1NC(=O)c1ccc(CNc2nccc(-c3ccn[nH]3)n2)cc1 | 30 min |

====

- ASSAY TEXT: Solubility at pH 6.8
- Assay type: physicochemical
- ASSAY CONTEXT: buffer

| SMILES NOTATION | solubility |
| --- | --- |
| Nc1ccccc1NC(=O)c1ccc(CNc2nccc(-c3ccn[nH]3)n2)cc1 | 77 µg/mL |

====

- STUDY TARGET: Histone deacetylase 3 (Homo sapiens, UniProt O15379)
- Sequence (O15379 whole entry): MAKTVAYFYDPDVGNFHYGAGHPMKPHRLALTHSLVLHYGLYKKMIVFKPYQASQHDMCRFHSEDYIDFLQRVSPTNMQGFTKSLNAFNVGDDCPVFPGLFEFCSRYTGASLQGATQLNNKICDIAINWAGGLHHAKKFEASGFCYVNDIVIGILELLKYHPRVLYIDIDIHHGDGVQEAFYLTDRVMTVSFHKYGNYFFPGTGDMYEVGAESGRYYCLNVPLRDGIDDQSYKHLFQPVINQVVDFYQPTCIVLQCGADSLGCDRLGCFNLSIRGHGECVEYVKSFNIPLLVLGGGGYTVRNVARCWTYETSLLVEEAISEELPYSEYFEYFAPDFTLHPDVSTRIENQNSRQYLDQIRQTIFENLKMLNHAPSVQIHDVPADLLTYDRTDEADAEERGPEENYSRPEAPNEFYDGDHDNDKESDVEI

| SMILES NOTATION | IC50 |
| --- | --- |
| Nc1ccccc1NC(=O)c1ccc(CNc2nccc(-c3ccn[nH]3)n2)cc1 | 320 nM |

====

- ASSAY TEXT: Solubility at pH 1.2
- Type: physicochemical
- ASSAY CONTEXT: buffer

| SMILES NOTATION | solubility |
| --- | --- |
| Nc1ccccc1NC(=O)c1ccc(CNc2nccc(-c3ccn[nH]3)n2)cc1 | > 1000 µg/mL |

====

- Test system: HCT-116
- ASSAY TEXT: Induction of p21WAF1/CIP1 expression in human HCT116 cells assessed as […] after 16 hrs by luciferase assay
- Type: functional, cell-based
- ASSAY CONTEXT: HCT-116, 16 h
pEC50: −log10 of the molar value.

| SMILES NOTATION | pEC50 |
| --- | --- |
| Nc1ccccc1NC(=O)c1ccc(CNc2nccc(-c3ccc(N4CCOCC4)nc3)n2)cc1 | 6.40 |
| Nc1ccccc1NC(=O)c1ccc(CNc2nccc(-c3ccc(CN4CCOCC4)cc3)n2)cc1 | 6.30 |
| Nc1ccccc1NC(=O)c1ccc(CNc2nccc(-c3nccs3)n2)cc1 | 6.30 |
| CN1CCN(c2ccc(-c3ccnc(NCc4ccc(C(=O)Nc5ccccc5N)cc4)n3)cn2)CC1 | 6.70 |
| Nc1ccccc1NC(=O)c1ccc(CNc2cccc(-c3cccnc3)n2)cc1 | 6.22 |
| Nc1cc(-c2cccnc2)nc(NCc2ccc(C(=O)Nc3ccccc3N)cc2)n1 | 6.70 |
| Nc1ccccc1NC(=O)c1ccc(CNc2ccnc(-c3cccnc3)n2)cc1 | 6.22 |
| Nc1ccccc1NC(=O)c1ccc(CNc2nccc(-c3cccnc3)n2)cc1 | 6.22 |

====

- ASSAY TEXT: Volume of distribution at steady state in Sprague-Dawley rat at 2.5 mg/kg, iv up to 6 hrs
- Type: ADME, organism-based
- Parameters: dose 2.5 mg/kg, route intravenous
- ASSAY CONTEXT: in vivo, read-out: Vdss

| SMILES NOTATION | Vd |
| --- | --- |
| Nc1ccccc1NC(=O)c1ccc(CNc2nccc(-c3ccn[nH]3)n2)cc1 | 0.13 L/kg |
